EXPERIMENTAL TARGET: CD137 on Jurkat reporter cells (Promega kit CS196005) (UniProt Q07011 24-255, limits assumed)
Sequence (Q07011 24-255 limits assumed): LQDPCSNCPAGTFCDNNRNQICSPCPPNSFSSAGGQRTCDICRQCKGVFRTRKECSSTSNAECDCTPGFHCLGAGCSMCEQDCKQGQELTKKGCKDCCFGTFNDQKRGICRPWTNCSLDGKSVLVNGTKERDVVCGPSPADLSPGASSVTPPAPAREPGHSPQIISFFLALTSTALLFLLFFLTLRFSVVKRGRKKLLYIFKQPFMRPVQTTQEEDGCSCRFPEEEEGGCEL
RUN DESCRIPTION: cell-based or functional assay
Starred links: 1 amine or outer side, 2 acyl side, 3 side chain; linkers in the order of their positions; H or OH if unused. Positions of bridges follow the written chain, without caps; N, C: chain ends. Non-standard residues stand in square brackets, D forms with d. Groups on a side chain read outwards from the residue. Primed or numbered codes have the meaning given here. Chains are numbered I, II in the order given. No end group written: not given here. *: point of attachment. dLys(PYA) = D-lysine Nε-acylated with 4-pentynoic acid, clicked (triazole) to the linker azide, O=C(CCc1cn([*:3])nn1)NCCCC[C@@H](N[*:1])C(=O)[*:2]; TATA = O=C(CC[*:1])N1CN(C(=O)CC[*:2])CN(C(=O)CC[*:3])C1; Biotin = O=C1N[C@H]2[C@H](CS[C@H]2CCCCC(=O)*)N1; 1Nal = N[C@@H](Cc1cccc2ccccc12)C(=O)O; Hyp = O=C(O)[C@@H]1C[C@@H](O)CN1; hArg = N=C(N)NCCCC[C@H](N)C(=O)O; tBuAla = CC(C)(C)C[C@H](N)C(=O)O; dK(PYA) = not defined here; PEG12′ = not defined here; Nle = CCCC[C@H](N)C(=O)O; Pent4ynoyl = C#CCCC(=O)*; dNMeA = CN[C@H](C)C(=O)O
Consider the cut-off 0.6 nM. If the recorded EC50 (nM), HT1376 co-culture is strictly smaller, the label is true; if not, the label is false.

Solved entries (count: 3):
BINDER | LABEL VALUE
BCY12761 (linker I:1-I:5-I:15, II:1-II:8-II:15 via TATA; not fully specified (some residues, bridges); also: chain 1 N-terminus and chain 2 dLys(PYA)4 joined by N-(acid-PEG3)-N-bis(PEG3-azide) linker) peptide 1: CP[1Nal]DCM[hArg]DWSTP[Hyp]WC peptide 2: Ac-C[tBuAla]PE[dK](Pent4ynoyl)PYCFAD[dNMeA]Y[Nle]C | true
BCY13583 (linker I:1-I:5-I:15 via TATA; linker II:1-II:8-II:15, III:1-III:8-III:15 via TATA (inferred); reading uncertain; also: Alexa Fluor 488 label, site not given here, linker at chain B 5 at chain C 5 to a chain's N-terminus via N-(acid-PEG3)-N-bis(PEG3-azide)) peptide 1: CP[1Nal][dD]CM[hArg]DWSTP[Hyp]WC peptide 2: Ac-C[tBuAla]PE[dK(PYA)]PYCFADPY[Nle]CA peptide 3: Ac-C[tBuAla]PE[dK(PYA)]PYCFADPY[Nle]CK | false
BCY12490 (BCY8928: Ac-(SEQ ID NO: 11)-A; TATA; linker at dLys(PYA)4; BCY12024: Ac-(SEQ ID NO: 14); TATA; linker at dLys3) peptide 1: CPXKCMXDWSTPXWC peptide 2: CXPEXPYCFADPYXCA | true

[in] Take the binder BCY12487 (linker I:1-I:5-I:15, II:1-II:8-II:15 via TATA; not fully specified (some residues, bridges); also: chain 1 N-terminus and chain 2 dLys(PYA)4 joined by N-(acid-PEG3)-N-bis(PEG3-azide) linker) peptide 1: CP[1Nal]DCM[hArg]DWSTP[Hyp]WC peptide 2: Ac-C[tBuAla]PE[dK](Pent4ynoyl)PYCFAEPY[Nle]C and say whether its EC50 (nM), HT1376 co-culture is less than 0.6 nM.
[out] false

[in] Take the binder BCY10919 (not fully specified; BCY11014: Ac-(SEQ ID NO: 6)-Dap(PYA); TATA; linker at C-term Dap(PYA); BCY11015: [PYA]-(SEQ ID NO: 1); TATA; linker at N-term PYA) peptide 1: CPXDCMXDWSTPXWC peptide 2: CXPEAPYCFADPYXCX and say whether its EC50 (nM), HT1376 co-culture is less than 0.6 nM.
[out] true

[in] Take the binder BCY13582 (biotinylated BCY11863) (linker I:1-I:5-I:15, II:1-II:8-II:15, III:1-III:8-III:15 via TATA; also: linker at chain B 5 at chain C 5 to a chain's N-terminus via N-(acid-PEG3)-N-bis(PEG3-azide), also called test peptide) peptide 1: CP[1Nal][dD]CM[hArg]DWSTP[Hyp]WC peptide 2: Ac-C[tBuAla]PE[dLys(PYA)]PYCFADPY[Nle]CA peptide 3: Ac-C[tBuAla]PE[dLys(PYA)]PYCFADPY[Nle]CK([PEG12′-Biotin]) and say whether its EC50 (nM), HT1376 co-culture is less than 0.6 nM.
[out] true

[in] Take the binder BCY11027 (not fully specified; BCY8928: Ac-(SEQ ID NO: 11)-A; TATA; linker at dLys(PYA)4; BCY11015: [PYA]-(SEQ ID NO: 1); TATA; linker at N-term PYA) peptide 1: CPXDCMXDWSTPXWC peptide 2: CXPEXPYCFADPYXCA and say whether its EC50 (nM), HT1376 co-culture is less than 0.6 nM.
[out] true
